- System: Trypanosoma cruzi
- experiment-description: Inhibition of growth of uM
- Type: functional
measured-parameter: Inhibition
Don't forget the unit after the number, please.

Enter reported Inhibition observed with Trypanosoma cruzi for Ic1ccccc1OCCOC1CCCCO1 (stereo unspecified)
20%

CSCCOc1ccc(Oc2ccccc2)cc1 , same question.
18%

Cc1ccc(C)c(OCCOC2CCCCO2)c1 (stereo unspecified) , same question.
15%

c1ccc(CSCCOc2ccc(Oc3ccccc3)cc2)cc1 , same question.
41%

Clc1ccccc1OCCOC1CCCCO1 (stereo unspecified) , same question.
22%

Cc1ccc(OCCOC2CCCCO2)cc1 (stereo unspecified) , same question.
11%

---

- Test system: Trypanosoma cruzi
- experiment-description: Antiparasitic activity against amastigote form of Trypanosoma cruzi
Recorded IC50 values for a group of compounds are listed next.

// below: answered compounds
>  <smiles-input>
Cc1cccc(C)c1OCCSC#N

>  <IC50>
> 70 µM

$$$$
>  <smiles-input>
C=CCc1cc(Oc2ccccc2)ccc1OCCSC#N

>  <IC50>
> 70 µM

$$$$
>  <smiles-input>
S=C(NCCOc1ccc(Oc2ccccc2)cc1)SCc1ccccc1

>  <IC50>
> 70 µM

$$$$

Using the record for N#CSCCOc1ccccc1I , report its IC50.
> 70 µM

C=CCSC(=S)NCCOc1ccc(Oc2ccccc2)cc1 , same question.
> 70 µM
